These measurements were taken from ChEMBL document CHEMBL1122878.

System: Rattus norvegicus
assay: In vivo antihistaminic activity after 2 hours of oral administration using 48/80 lethality test in rat.
Format: functional
reportedMetric: ED50 (mg/kg)

moleculeSmiles: C(=C\c1ccccc1)/CN1CCC(Nc2nc3cccnc3n2Cc2ccccc2)CC1
u: mg/kg
relation: =
readoutNumber: 1.25
//
moleculeSmiles: c1ccc(CCN2CCC(Nc3nc4cccnc4n3Cc3ccccc3)CC2)cc1
u: mg/kg
relation: >
readoutNumber: 2.5
//
moleculeSmiles: c1ccc(Cn2c(NC3CCN(CCN4CCOCC4)CC3)nc3cccnc32)cc1
u: mg/kg
relation: =
readoutNumber: 2.5
//
moleculeSmiles: O=C(CCCN1CCC(Nc2nc3cccnc3n2Cc2ccc(F)cc2)CC1)c1ccc(F)cc1
u: mg/kg
relation: =
readoutNumber: 1.25
//
moleculeSmiles: Fc1ccc(Cn2c(NC3CCN(CCc4ccccn4)CC3)nc3cccnc32)cc1
u: mg/kg
relation: =
readoutNumber: 0.31

----------
System: Rattus norvegicus
assay: In vivo antihistaminic activity after 2 hours of oral administration using 48/80 lethality test in rat.
Type: functional
reportedMetric: ED50 (mg/kg)

molecule: Fc1ccc(Cn2c(NC3CCN(CCc4cccs4)CC3)nc3cccnc32)cc1
u: mg/kg
relation: >
readoutNumber: 2.5
--
molecule: c1ccc(Cn2c(NC3CCN(CC4COc5ccccc5O4)CC3)nc3cccnc32)cc1 (stereo unspecified)
u: mg/kg
relation: >
readoutNumber: 2.5
--
molecule: O=C(NCCN1CCC(Nc2nc3cccnc3n2Cc2ccccc2)CC1)c1ccc(F)cc1
u: mg/kg
relation: =
readoutNumber: 1.25
--
molecule: c1ccc(Cn2c(NC3CCN(C4CCCCC4)CC3)nc3cccnc32)cc1
u: mg/kg
relation: >
readoutNumber: 2.5
--
molecule: Fc1ccc(Cn2c(NC3CCN(CCCOc4ccccc4)CC3)nc3cccnc32)cc1
u: mg/kg
relation: =
readoutNumber: 0.31
--
molecule: CN1CCC(Nc2nc3cccnc3n2Cc2ccccc2)CC1
u: mg/kg
relation: >
readoutNumber: 2.5
--
molecule: O=C(CCCN1CCC(Nc2nc3cccnc3n2Cc2ccccc2)CC1)c1ccc(F)cc1
u: mg/kg
relation: =
readoutNumber: 1.25
--
molecule: CC(C)N1CCC(Nc2nc3cccnc3n2Cc2ccccc2)CC1
u: mg/kg
relation: >
readoutNumber: 2.5
--
molecule: CCn1nnn(CCN2CCC(Nc3nc4cccnc4n3Cc3ccc(F)cc3)CC2)c1=O
u: mg/kg
relation: >
readoutNumber: 2.5
--
molecule: CCCCN1CCC(Nc2nc3cccnc3n2Cc2ccccc2)CC1
u: mg/kg
relation: >
readoutNumber: 2.5
--
molecule: c1ccc(Cn2c(NC3CCN(CCOc4ccccc4)CC3)nc3cccnc32)cc1
u: mg/kg
relation: =
readoutNumber: 1.25
--
molecule: Oc1nc2ccccc2n1CCCN1CCC(Nc2nc3cccnc3n2Cc2ccc(F)cc2)CC1
u: mg/kg
relation: =
readoutNumber: 2.5
--
molecule: C=CCN1CCC(Nc2nc3cccnc3n2Cc2ccccc2)CC1
u: mg/kg
relation: >
readoutNumber: 2.5
--
molecule: COc1ccc(CCN2CCC(Nc3nc4cccnc4n3Cc3ccc(F)cc3)CC2)cc1
u: mg/kg
relation: =
readoutNumber: 0.16
--
molecule: COc1ccc(CCN2CCC(Nc3nc4cccnc4n3Cc3ccccc3)CC2)cc1
u: mg/kg
relation: =
readoutNumber: 0.31
--
molecule: OC(COc1ccccc1)CN1CCC(Nc2nc3cccnc3n2Cc2ccccc2)CC1 (stereo unspecified)
u: mg/kg
relation: =
readoutNumber: 0.63
--
molecule: Fc1ccc(Cn2c(NC3CCN(C/C=C/c4ccccc4)CC3)nc3cccnc32)cc1
u: mg/kg
relation: >
readoutNumber: 2.5
--
molecule: Fc1ccc(Cn2c(NC3CCN(CCc4ccccc4)CC3)nc3cccnc32)cc1
u: mg/kg
relation: >
readoutNumber: 2.5
--
molecule: COc1ccc(CCN2CCC(Nc3nc4ccccc4n3Cc3ccc(F)cc3)CC2)cc1 [ASTEMIZOLE]
u: mg/kg
relation: =
readoutNumber: 0.11
--
molecule: CN1CCC(Nc2nc3cccnc3n2Cc2ccc(F)cc2)CC1
u: mg/kg
relation: >
readoutNumber: 2.5
--
molecule: Fc1ccc(OCCCN2CCC(Nc3nc4cccnc4n3Cc3ccccc3)CC2)cc1
u: mg/kg
relation: =
readoutNumber: 1.25
